biological target: MDM2 SWIB domain from Lepisosteus oculatus (spotted gar) (Lepisosteus oculatus (spotted gar)); experiment: fluorescence polarisation; displacement: complex of MDM2 (0.2-2 μM) and FITC-p53TAD_(human)^15–26 (15 nM) displaced by increasing unlabeled p53TAD peptide or p53TAD^full-length; KD calculated from IC50 (Nikolovska-Coleska et al. 2004); 20 mM sodium phosphate pH 7.4, 150 mM NaCl, 1 mM TCEP
Where no end group is shown, it is not given here.
endpoint_label: Kd

binder: Ac-SQESFQELWNMVI [Lepisosteus oculatus (spotted gar) p53TAD^15–27]
endpoint_label: Kd
observed: 390 nM
